Every entry's value here was drawn from patent US11208427B2.

Assay: Cytotoxicity assay (MTT)
Assay type: cell-based
Settings: human, HEp-2 cells
OUTCOME MEASURE: CC50 at 72 h (µM)
Give just the numeric value; µM need not be written.

For the compound shown here, NC(=O)c1ncn([C@@H]2O[C@H](CO)[C@@H](O)[C@H]2O)n1 [Ribavirin, reference compound] , give the reported CC50 at 72 h.
37.9

###

System: HEp-2 cells
Test: Cytotoxicity assay (MTT)
Format: cell-based
Settings: 72 hours
OUTCOME MEASURE: MNCC

In the examples that follow, each entry is paired with its recorded MNCC.
O=C(CCc1ccc(O)c(O)c1)NCCCCNCCCNC(=O)CCc1ccc(O)c(O[C@@H]2O[C@H](CO)[C@@H](O)[C@H](O)[C@H]2O)c1 | >100 µM
O=C(CCc1ccc(O)c(O[C@@H]2O[C@H](CO)[C@@H](O)[C@H](O)[C@H]2O)c1)NCCCCNCCCNC(=O)CCc1ccc(O)c(O[C@@H]2O[C@H](CO)[C@@H](O)[C@H](O)[C@H]2O)c1 | >100 µM

For the compound shown here, O=C(/C=C/c1ccc(O)c(O[C@@H]2O[C@H](CO)[C@@H](O)[C@H](O)[C@H]2O)c1)NCCCNCCCCNC(=O)CCc1ccc(O)c(O[C@@H]2O[C@H](CO)[C@@H](O)[C@H](O)[C@H]2O)c1 , give the reported MNCC.
>100 µM

###

Tested on: HEp-2 cells
Experiment: Cytotoxicity assay (MTT)
Format: cell-based
Settings: 72 hours
MNCC values by entry

In the examples that follow, each entry is paired with its recorded MNCC.
NC(=O)c1ncn([C@@H]2O[C@H](CO)[C@@H](O)[C@H]2O)n1 [Ribavirin, reference compound] | 15.32 ± 4.31 µM
O=C(/C=C/c1ccc(O)c(O)c1)NCCCNCCCCNC(=O)CCc1ccc(O)c(O[C@@H]2O[C@H](CO)[C@@H](O)[C@H](O)[C@H]2O)c1 | >100 µM

For the compound shown here, O=C(/C=C/c1ccc(O[C@@H]2O[C@H](CO)[C@@H](O)[C@H](O)[C@H]2O)c(O)c1)NCCCNCCCCNC(=O)CCc1ccc(O)c(O)c1 , give the reported MNCC.
>100 µM

For the compound shown here, O=C(/C=C/c1ccc(O)c(O)c1)NCCCNCCCCNC(=O)CCc1ccc(O[C@@H]2O[C@H](CO)[C@@H](O)[C@H](O)[C@H]2O)c(O)c1 , give the reported MNCC.
>100 µM

For the compound shown here, O=C(CCc1ccc(O)c(O[C@@H]2O[C@H](CO)[C@@H](O)[C@H](O)[C@H]2O)c1)NCCCCNCCCNC(=O)CCc1ccc(O[C@@H]2O[C@H](CO)[C@@H](O)[C@H](O)[C@H]2O)c(O)c1 , give the reported MNCC.
>100 µM

For the compound shown here, O=C(/C=C/c1ccc(O)c(O[C@@H]2O[C@H](CO)[C@@H](O)[C@H](O)[C@H]2O)c1)NCCCNCCCCNC(=O)CCc1ccc(O)c(O)c1 , give the reported MNCC.
>100 µM

###

System: respiratory syncytial virus (RSV)
Test: microbe, parasite or virus in culture
Assay type: cell-based
Details: RSV, HEp-2 cells
SI = CC50/IC50 values by entry

O=C(/C=C\c1ccc(O)c(O[C@@H]2O[C@H](CO)[C@@H](O)[C@H](O)[C@H]2O)c1)NCCCNCCCCNC(=O)CCc1ccc(O[C@@H]2O[C@H](CO)[C@@H](O)[C@H](O)[C@H]2O)c(O)c1 | >2
O=C(/C=C/c1ccc(O)c(O)c1)NCCCNCCCCNC(=O)CCc1ccc(O[C@@H]2O[C@H](CO)[C@@H](O)[C@H](O)[C@H]2O)c(O)c1 | >4
O=C(CCc1ccc(O)c(O)c1)NCCCCNCCCNC(=O)CCc1ccc(O)c(O[C@@H]2O[C@H](CO)[C@@H](O)[C@H](O)[C@H]2O)c1 | >4
O=C(/C=C/c1ccc(O)c(O)c1)NCCCNCCCCNC(=O)CCc1ccc(O)c(O[C@@H]2O[C@H](CO)[C@@H](O)[C@H](O)[C@H]2O)c1 | >4
O=C(/C=C/c1ccc(O)c(O[C@@H]2O[C@H](CO)[C@@H](O)[C@H](O)[C@H]2O)c1)NCCCNCCCCNC(=O)CCc1ccc(O)c(O)c1 | >4
O=C(CCc1ccc(O)c(O[C@@H]2O[C@H](CO)[C@@H](O)[C@H](O)[C@H]2O)c1)NCCCCNCCCNC(=O)CCc1ccc(O)c(O[C@@H]2O[C@H](CO)[C@@H](O)[C@H](O)[C@H]2O)c1 | >2
NC(=O)c1ncn([C@@H]2O[C@H](CO)[C@@H](O)[C@H]2O)n1 [Ribavirin, reference compound] | 15
O=C(CCc1ccc(O[C@@H]2O[C@H](CO)[C@@H](O)[C@H](O)[C@H]2O)c(O)c1)NCCCCNCCCNC(=O)CCc1ccc(O[C@@H]2O[C@H](CO)[C@@H](O)[C@H](O)[C@H]2O)c(O)c1 | >4
O=C(CCc1ccc(O)c(O[C@@H]2O[C@H](CO)[C@@H](O)[C@H](O)[C@H]2O)c1)NCCCCNCCCNC(=O)CCc1ccc(O[C@@H]2O[C@H](CO)[C@@H](O)[C@H](O)[C@H]2O)c(O)c1 | >2
O=C(/C=C/c1ccc(O)c(O[C@@H]2O[C@H](CO)[C@@H](O)[C@H](O)[C@H]2O)c1)NCCCNCCCCNC(=O)CCc1ccc(O)c(O[C@@H]2O[C@H](CO)[C@@H](O)[C@H](O)[C@H]2O)c1 | >2

Now consider the entry below.
For the compound shown here, O=C(/C=C/c1ccc(O[C@@H]2O[C@H](CO)[C@@H](O)[C@H](O)[C@H]2O)c(O)c1)NCCCNCCCCNC(=O)CCc1ccc(O)c(O)c1 , give the reported SI = CC50/IC50.
>4
